# credit: the supplement of paper PMC10567573

Each entry below lists one item and its recorded protein stability index value.
B1: CDKL4 (parent)
chain: AVKKFVESEDDPVVKKIALREIRM

# Variants of: B1
# assay_name: protein stability index of a GFP-peptide fusion (GPS, HEK-293T) (PSI 1-6); higher = more stable;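 further: lentivirally expressed fusions sorted by FACS into six bins by GFP to DsRed ratio, PSI derived from sequencing read proportions per bin multiplied by bin number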
# conditions_used: c terminus: a fixed tail appended
observed_property: protein stability index

INSERT INTO results (mutation_name, observed_property, experimental_value) VALUES
  ('K16C', 'protein stability index', 2.92),
  ('V6S', 'protein stability index', 3.17),
  ('L19P', 'protein stability index', 4.24),
  ('L19A', 'protein stability index', 3.87),
  ('R20S', 'protein stability index', 3.19),
  ('M24H', 'protein stability index', 3.59),
  ('A18Y', 'protein stability index', 2.69),
  ('F5S', 'protein stability index', 4.46),
  ('V13N', 'protein stability index', 3.28),
  ('E9P', 'protein stability index', 2.34),
  ('V2Y', 'protein stability index', 2.52),
  ('D11S', 'protein stability index', 2.87),
  ('V13I', 'protein stability index', 2.83),
  ('A1R', 'protein stability index', 2.45),
  ('V2G', 'protein stability index', 3.82),
  ('S8C', 'protein stability index', 2.54),
  ('K4S', 'protein stability index', 3.15),
  ('V13H', 'protein stability index', 3.11);
